All values here come from paper PMC3672139.

target.entity: RB1 (human) (UniProt P06400)
Sequence: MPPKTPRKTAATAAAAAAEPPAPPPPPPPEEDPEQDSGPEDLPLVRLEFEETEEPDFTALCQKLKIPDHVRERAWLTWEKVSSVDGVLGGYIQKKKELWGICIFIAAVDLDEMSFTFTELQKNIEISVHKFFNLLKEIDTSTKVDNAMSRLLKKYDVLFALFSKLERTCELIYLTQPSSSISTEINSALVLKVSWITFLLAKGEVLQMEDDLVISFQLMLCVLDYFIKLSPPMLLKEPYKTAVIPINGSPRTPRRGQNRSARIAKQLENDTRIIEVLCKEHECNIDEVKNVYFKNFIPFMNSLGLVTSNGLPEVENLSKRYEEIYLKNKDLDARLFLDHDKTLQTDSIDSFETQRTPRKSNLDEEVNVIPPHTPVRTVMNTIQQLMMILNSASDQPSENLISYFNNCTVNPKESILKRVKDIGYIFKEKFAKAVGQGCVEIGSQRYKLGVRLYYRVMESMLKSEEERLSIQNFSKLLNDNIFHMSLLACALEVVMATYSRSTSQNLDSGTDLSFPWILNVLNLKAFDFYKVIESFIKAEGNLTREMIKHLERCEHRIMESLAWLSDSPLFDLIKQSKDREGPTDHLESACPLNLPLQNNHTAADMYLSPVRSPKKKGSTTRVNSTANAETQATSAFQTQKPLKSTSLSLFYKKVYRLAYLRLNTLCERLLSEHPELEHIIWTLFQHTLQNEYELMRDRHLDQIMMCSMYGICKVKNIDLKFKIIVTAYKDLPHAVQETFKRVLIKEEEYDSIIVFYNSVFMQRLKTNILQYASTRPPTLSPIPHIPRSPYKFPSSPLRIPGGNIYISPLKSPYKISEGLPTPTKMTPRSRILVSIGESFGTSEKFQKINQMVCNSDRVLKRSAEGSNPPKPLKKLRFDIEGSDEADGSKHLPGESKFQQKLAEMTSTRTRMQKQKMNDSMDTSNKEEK
experiment: SPR
assay.context: DNA immobilized; 650 mM NaCl; 10 mM Tris-HCl, 150 mM NaCl, 5 mM KCl, pH 7.4; EMSA room temperature 30 min, 12% PAGE in TBE; SPR 25 C (RB1 SPR with 650 mM NaCl)
pKd: −log10 of the molar value.
experimental.readout: pKd

1) CGGGGGGTTTTGGGCGGC [RB1 G4]	6.36
